- tested_target: cloned human δ opioid receptor (Homo sapiens, UniProt P41143)
- Sequence (P41143 whole entry): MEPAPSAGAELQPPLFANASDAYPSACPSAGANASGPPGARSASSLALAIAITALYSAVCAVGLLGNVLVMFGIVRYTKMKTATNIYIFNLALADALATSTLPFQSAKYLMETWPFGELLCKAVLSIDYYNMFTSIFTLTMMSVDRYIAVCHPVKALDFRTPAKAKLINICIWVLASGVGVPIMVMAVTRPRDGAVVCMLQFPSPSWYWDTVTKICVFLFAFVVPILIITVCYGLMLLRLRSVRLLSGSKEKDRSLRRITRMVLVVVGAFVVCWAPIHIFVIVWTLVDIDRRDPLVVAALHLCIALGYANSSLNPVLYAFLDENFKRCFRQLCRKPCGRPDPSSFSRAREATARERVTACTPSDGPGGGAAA
- assay_overview: Receptor-mediated [35S]GTPγS binding, membranes containing cloned human δ opioid receptors
- condition_set: agonist stimulation of [35S]GTPγS binding

- compound: "CCCN(CC1CC1)C(=O)c1ccc(C2=CC3(CCNCC3)Oc3ccccc32)cc1 [Example Z7]"
  EC50 / nM: 29
- compound: "CCN(CC)C(=O)c1ccc(C2=CC3(CCN(C)CC3)Oc3ccccc32)cc1 [Example Z5]"
  EC50 / nM: 140
- compound: "CCN(CC)C(=O)c1ccc(C2=CC3(CCNCC3)Oc3ccc(F)cc32)cc1 [Example Z2]"
  EC50 / nM: 70
- compound: "CCN(CC)C(=O)c1ccc(C2=CC3(CCNCC3)Oc3ccc(O)cc32)cc1.Cl [Example Z3]"
  EC50 / nM: 1.4
- compound: "O=C(O)C1CCN(C(=O)c2ccc(C3=CC4(CCNCC4)Oc4ccccc43)cc2)CC1 [Example Z9]"
  EC50 / nM: 160
- compound: "C1=C(c2ccc(-c3nn[nH]n3)cc2)c2ccccc2OC12CCNCC2.O=C(O)C(F)(F)F [Example Z10]"
  EC50 / nM: 22
- compound: "O=C(O)CCCn1nnc(-c2ccc(C3=CC4(CCNCC4)Oc4ccccc43)cc2)n1 [Example Z11]"
  EC50 / nM: 140
